For each entry below, report its pIC50 value.
# System: Target C mRNA
# Protocol Description: Splicing RT-qPCR gene panel, Target C canonical junction (CJ) mRNA
# Type: cell-based, human
# Applied Conditions: Homo sapiens, Tables 4A/4B, read-out: Target C (IC50, decrease in CJ mRNA, gene panel)
# Procedure: Compounds described herein were used to modulate RNA transcript abundance in cells. The expression of a target mRNA was measured by detecting the formation of an exon-exon junction in the canonical transcript (CJ). A compound mediated exon-inclusion event was detected by observing an increase in formation of a new junction with an alternative exon (AJ). Real-time qPCR assays were used to detect these splicing switches and interrogate the potency of various compounds towards different target genes. […]
pIC50: −log10 of the molar value.

Documented pIC50 of Cc1cn2cc(NC(=O)c3ccc(N4CCNCC4)c4csnc34)cc(F)c2n1 : 5.00 to 6.00

Just so you know, measured pIC50 for CCNC1CCN(c2ccc(C(=O)Nc3cc(F)c4nc(C)cn4c3)c3oc(C)cc23)CC1 came out at 5.00 to 6.00

get_value(item= Cc1cn2cc(NC(=O)c3ccc(N4CCNCC4)c4cc(C)oc34)cc(Cl)c2n1 , readout=pIC50) returns < 5.00

Memo: Cc1cn2cc(NC(=O)c3ccc(N4CCC(NC(C)(C)C)CC4)c4cc(C)oc34)cc(F)c2n1 , reported pIC50: < 5.00

// sample COc1nc(NC(=O)c2ccc(N3CCNCC3)c3cn(C)nc23)cn2cc(C)nc12 , its pIC50 was 5.00 to 6.00

Item: CCn1cc2c(NC3CCNCC3)ccc(C(=O)Nc3cc(F)c4nc(C)cn4c3)c2n1 | pIC50: 5.00 to 6.00

// recorded pIC50 for CCN(CC)C1CCN(c2ccc(C(=O)Nc3cc(F)c4nc(C)cn4c3)c3nn(CCOC)cc23)C1 (stereo not shown) : < 5.00

According to the records, this molecule Cc1cn2cc(NC(=O)c3ccc(N4CC[C@H](NC5(CF)CC5)C4)c4cn(C)nc34)cc(F)c2n1 (single isomer, unassigned) displays pIC50 of < 5.00

molecule CC(=O)NC1CCN(c2ccc(C(=O)Nc3cc(F)c4nc(C)cn4c3)c3nn(C)cc23)CC1 , pIC50 observed: < 5.00

Entry under test: Cc1cn2cc(NC(=O)c3ccc(N4CCNCC4)c4cn(Cc5ccncc5)nc34)cc(F)c2n1 . Its pIC50 was 5.00 to 6.00

Lookup result for Cc1cn2cc(NC(=O)c3ccc(N4CCNCC4)c4cn(C)nc34)ncc2n1 ; measured pIC50: < 5.00

Entry Cc1cn2cc(NC(=O)c3ccc(N4CCNC(C)C4)c4cn(C)nc34)cc(Cl)c2n1 (stereo not shown) ; pIC50 = 5.00 to 6.00

# molecule Cc1nc2c(F)cc(NC(=O)c3ccc(N4CCNCC4)c4cn(C)nc34)cc2n1C ; its pIC50 = < 5.00

Memo: CCNC1CCN(c2ccc(C(=O)Nc3cc(F)c4nc(C)cn4c3)n3nc(CC)cc23)C1 (stereo not shown) , reported pIC50: 6.00 to 7.00

Measured pIC50, Cc1cn2cc(NC(=O)c3ccc(N4CCNCC4)c4cn(Cc5cnco5)nc34)cc(F)c2n1 : < 5.00

Short answer for Cc1cn2cc(NC(=O)c3ccc(N4CCNCC4)c4cn(Cc5cncnc5)nc34)cc(F)c2n1 : pIC50 was < 5.00

Form field pIC50, entry Cc1cn2cc(NC(=O)c3ccc(N4CCNC(C)C4)c4cc(C)oc34)cc(F)c2n1 (stereo not shown) : 5.00 to 6.00

So, Cc1cn2cc(NC(=O)c3ccc(N4CC(C)(C)NC(C)(C)C4)c4cn(C)nc34)cc(F)c2n1 ? Its pIC50 was < 5.00

Reported pIC50 of Cc1cn2cc(NC(=O)c3ccc(C4CCNCC4)c4ccoc34)cc(F)c2n1 : < 5.00

Quick note, pIC50 for Cc1cn2cc(NC(=O)c3ccc(N4CCNC[C@@H]4C)c4cn(C)nc34)cc(F)c2n1 landed at 5.00 to 6.00

Recorded result, Cc1cn2cc(N(C)C(=O)c3ccc(N4CCNCC4)c4cn(C)nc34)cc(F)c2n1 , pIC50: < 5.00

Briefly, pIC50 measured for Cc1cn2cc(NC(=O)c3ccc(N4CCNCC4)c4cn(C5CC(O)C5)nc34)cc(F)c2n1 (stereo not shown) : < 5.00

pIC50 measured on Cc1cn2cc(NC(=O)c3ccc(N4CCNCC4)c4cn(C(C)C)nc34)cc(F)c2n1 = < 5.00

For this molecule ( CCNC1CCN(c2ccc(C(=O)Nc3cc(F)c4nc(C)cn4c3)c3nn(CCOC)cc23)C1 (stereo not shown) ), measured pIC50 is < 5.00

Reported pIC50 for Cc1cn2cc(NC(=O)c3ccc(N4CCC(N(C)C)C4)c4cn(C)nc34)cc(Cl)c2n1 (stereo not shown) was 5.00 to 6.00

The value of pIC50 measured for the molecule Cc1cn2cc(NC(=O)c3ccc(N4CCNCC4)c4cn(C)nc34)cc(C(F)(F)F)c2n1 turned out to be < 5.00

GET /value?item= Cc1cn2cc(NC(=O)c3ccc(N4CCNCC4)c4cn(CC(C)(F)F)nc34)cc(F)c2n1 &field=pIC50 returns < 5.00

So, Cn1cc2c(N3CCNCC3)ccc(C(=O)Nc3cn[nH]c3)c2n1 ? Its pIC50 was < 5.00

Note to self: pIC50 recorded for COCCn1cc2c(N3C[C@@H](C)N[C@@H](C)C3)ccc(C(=O)Nc3cc(F)c4nc(C)cn4c3)c2n1 was < 5.00

pIC50 in this record for CNC1CCN(c2ccc(C(=O)Nc3cc(F)c4nc(C)cn4c3)c3nn(C)cc23)CC1 : 5.00 to 6.00

Record summary for Cc1cn2cc(NC(=O)c3ccc(N4CCNC(C)(C)C4)c4cc(C)oc34)cc(F)c2n1 : reported pIC50 = < 5.00
